Target: Tyrosine-protein phosphatase non-receptor type 1 (Homo sapiens) (UniProt P18031)
Sequence (P18031 whole entry): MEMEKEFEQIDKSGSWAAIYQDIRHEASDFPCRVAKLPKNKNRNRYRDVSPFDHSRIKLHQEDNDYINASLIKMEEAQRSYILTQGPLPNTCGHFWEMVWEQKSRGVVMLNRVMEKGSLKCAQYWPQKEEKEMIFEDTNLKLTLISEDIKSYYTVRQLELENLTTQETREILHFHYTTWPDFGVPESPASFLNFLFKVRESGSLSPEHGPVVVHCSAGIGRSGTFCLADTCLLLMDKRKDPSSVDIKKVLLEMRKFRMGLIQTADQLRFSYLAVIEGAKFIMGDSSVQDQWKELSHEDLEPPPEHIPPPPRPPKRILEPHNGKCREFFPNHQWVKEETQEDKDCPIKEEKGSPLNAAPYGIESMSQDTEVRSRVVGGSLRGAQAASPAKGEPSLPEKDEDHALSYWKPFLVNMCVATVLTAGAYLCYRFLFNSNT
Test: Inhibition of recombinant human PTP1B assessed as hydrolysis of p-nitrophenyl phosphate at 25 uM after 30 mins relative to control
Calls of active or inactive are those of the source. The calls are words filed in the database; no cut-off is given here.
ENDPOINT: inhibition

>>> experimental_value("CC(C)=CCc1c(O)c(CC=C(C)C)c2occ(-c3ccc(O)cc3)c(=O)c2c1O")
"> 95%"
>>> experimental_value("CC(C)=CCc1c(O)cc2oc(-c3ccc(O)cc3)c(O)c(=O)c2c1O")
"51%"
>>> experimental_value("COc1cc2oc(-c3ccc(O)cc3O)cc2c(OC)c1CC=C(C)C")
"> 90%"
>>> experimental_value("CC(C)=CCc1c(O)ccc(-c2coc3cc(O)c(CC=C(C)C)c(O)c3c2=O)c1O")
"> 95%"
>>> experimental_value("CC1(C)[C@@H](O)CC[C@]2(C)[C@H]3C(=O)C=C4[C@H]5C[C@@](C)(C(=O)O)CC[C@]5(C)CC[C@@]4(C)[C@]3(C)CC[C@@H]12")
"81%"
>>> experimental_value("COc1cc2c(c3oc(-c4ccc(O)cc4O)cc13)C(C)(C)C(C)O2 (configuration not stated)")
"> 90%"
>>> experimental_value("COc1c(-c2ccc(O)cc2)oc2cc(O)c(CC=C(C)C)c(O)c2c1=O")
"52%"
>>> experimental_value("COc1c(CC=C(C)C)c(O)cc2oc(-c3ccc(O)cc3O)cc12")
"> 90%"
>>> experimental_value("CC(C)=CCc1cc(-c2oc3cc(O)cc(O)c3c(=O)c2O)cc(O)c1O")
"Active"
>>> experimental_value("CC(C)=CCc1cc2c(=O)cc(-c3ccc(O)cc3)oc2cc1O")
"Active"
>>> experimental_value("O=C1C[C@@H](c2ccc(O)cc2)Oc2cc(O)ccc21")
"inactive"
>>> experimental_value("COc1c(-c2ccc(O)c(CC=C(C)C)c2)oc2cc(O)cc(O)c2c1=O")
"85%"
>>> experimental_value("CC(C)=CCc1cc(-c2oc3cc(O)cc(O)c3c(=O)c2O)ccc1O")
"98%"
>>> experimental_value("CC(C)=CCc1c(O)ccc(-c2coc3c(CC=C(C)C)c(O)cc(O)c3c2=O)c1O")
"> 95%"
>>> experimental_value("COc1c(CC=C(C)C)c(O)cc2c1C[C@H](c1ccc(O)c(CC=C(C)C)c1O)CO2")
"> 95%"
>>> experimental_value("CC(C)=CCc1cc(-c2coc3cc(O)c(CC=C(C)C)c(O)c3c2=O)cc(O)c1O")
"> 95%"
>>> experimental_value("COc1ccc2c(c1)OC1C2COC2=CC(=O)CCC21O (configuration not stated)")
"inactive"

----------
Tested on: SW480
Assay: Inhibition of NFkappaB transcription in human SW480 cells at 10 uM by luciferase reporter gene assay
Format: cell-based
Peptide text beside a SMILES is read from it. * marks the point of attachment. Cbz = O=C(OCc1ccccc1)*
ENDPOINT: inhibition

>>> experimental_value("CC(C)C[C@@H](C=O)NC(=O)[C@H](CC(C)C)NC(=O)[C@H](CC(C)C)NC(=O)OCc1ccccc1 [MG-132] (Cbz-Leu-Leu-Leu-aldehyde)")
"23%"
>>> experimental_value("CC1(C)C=Cc2c(ccc3c2OC[C@@H](c2ccc(O)cc2O)C3)O1 [GLABRIDIN]")
"> 30%"
>>> experimental_value("COc1ccc2c(c1)OC1C2COC2=CC(=O)CCC21O (stereo unspecified)")
"> 30%"
>>> experimental_value("COc1cc2c(c(OC)c1CC=C(C)C)C1c3ccc(O)cc3OC1(O)CO2 (stereo unspecified)")
"> 30%"
>>> experimental_value("COc1cc(O)cc2c1[C@@H]1Oc3c(ccc4c3C=CC(C)(C)O4)[C@@H]1CO2")
"> 30%"
>>> experimental_value("COc1c(CC=C(C)C)c(O)cc2oc(-c3ccc(O)cc3O)cc12 [LICOCOUMARONE]")
"> 30%"

----------
Target: Nuclear factor erythroid 2-related factor 2 (Homo sapiens) (UniProt Q16236)
Assay: Activation of NRF2 transcription in human HepG2C8 cells at 10 uM after 6 hrs by luciferase reporter gene assay relative to control
Type: cell-based
ENDPOINT: fold change (FC)

>>> experimental_value("C=CC(C)(C)c1c(O)cc(OC)c2cc(-c3ccc(O)cc3O)c(=O)oc12")
0.88
>>> experimental_value("COc1cc2oc(=O)c(-c3ccc(O)cc3O)cc2c(OC)c1CC=C(C)C")
0.88
>>> experimental_value("O=C(/C=C/c1ccc(O)cc1)c1ccc(O)cc1O")
5.88

----------
Molecular target: Nuclear factor erythroid 2-related factor 2 (Homo sapiens)
Assay: Activation of NRF2 transcription in human HepG2C8 cells at 10 uM after 6 hrs by luciferase reporter gene assay relative to control
Type: cell-based
ENDPOINT: fold change (FC)

>>> experimental_value("COc1c(CC=C(C)C)c(O)cc2oc(=O)c(-c3ccc(O)cc3O)cc12")
1.72
>>> experimental_value("CC(C)=CCc1c(O)cc2occ(-c3ccc(O)cc3O)c(=O)c2c1O")
6.68
>>> experimental_value("COc1c2c(cc3oc(=O)c(-c4ccc(O)cc4O)cc13)OC(C)(C)CC2")
3.49
>>> experimental_value("C[C@H]1O[C@H](O[C@H]2CC(C)(C)C[C@@H]3C4=CC(=O)[C@H]5[C@]6(C)CC[C@@H](O[C@@H]7O[C@H](C(=O)O)[C@@H](O)[C@H](O)[C@H]7O[C@@H]7O[C@H](C(=O)O)[C@@H](O)[C@H](O)[C@H]7O)C(C)(C)[C@H]6CC[C@]5(C)[C@@]4(C)CC[C@]23C)[C@@H](O)[C@@H](O)[C@@H]1O")
1.53

----------
Test system: Influenza A virus
Assay: Antiviral activity against Influenza A virus A/WSN/33(H1N1) infected in MDCK cells at 100 uM preincubated with virus for 15 mins followed by cells addition measured at 36 hrs post infection
Format: functional, A/WSN/1933(H1N1)
Readings of Activity for the listed compounds
ENDPOINT: Activity (%)

>>> experimental_value("CC1(C)[C@@H](O[C@@H]2O[C@H](C(=O)O)[C@@H](O)[C@H](O[C@@H]3O[C@H](C(=O)O)[C@@H](O)[C@H](O)[C@H]3O)[C@H]2O)CC[C@]2(C)[C@H]3C(=O)C=C4[C@H]5C[C@@](C)(C(=O)O)CC[C@]5(C)CC[C@@]4(C)[C@]3(C)CC[C@@H]12")
47
>>> experimental_value("CC1(C)[C@H]2CC[C@@]3(C)[C@@H](C(=O)C=C4[C@@H]5C[C@]6(C)C[C@@H](COC6=O)[C@@]5(C)CC[C@@]43C)[C@]2(C)CC[C@H]1O[C@H]1O[C@@H](C(=O)O)[C@H](O)[C@@H](O)[C@@H]1O[C@@H]1O[C@H](C(=O)O)[C@H](O)[C@H](O)[C@H]1O")
47

----------
Molecular target: Nuclear factor erythroid 2-related factor 2 (Homo sapiens)
Sequence (whole entry): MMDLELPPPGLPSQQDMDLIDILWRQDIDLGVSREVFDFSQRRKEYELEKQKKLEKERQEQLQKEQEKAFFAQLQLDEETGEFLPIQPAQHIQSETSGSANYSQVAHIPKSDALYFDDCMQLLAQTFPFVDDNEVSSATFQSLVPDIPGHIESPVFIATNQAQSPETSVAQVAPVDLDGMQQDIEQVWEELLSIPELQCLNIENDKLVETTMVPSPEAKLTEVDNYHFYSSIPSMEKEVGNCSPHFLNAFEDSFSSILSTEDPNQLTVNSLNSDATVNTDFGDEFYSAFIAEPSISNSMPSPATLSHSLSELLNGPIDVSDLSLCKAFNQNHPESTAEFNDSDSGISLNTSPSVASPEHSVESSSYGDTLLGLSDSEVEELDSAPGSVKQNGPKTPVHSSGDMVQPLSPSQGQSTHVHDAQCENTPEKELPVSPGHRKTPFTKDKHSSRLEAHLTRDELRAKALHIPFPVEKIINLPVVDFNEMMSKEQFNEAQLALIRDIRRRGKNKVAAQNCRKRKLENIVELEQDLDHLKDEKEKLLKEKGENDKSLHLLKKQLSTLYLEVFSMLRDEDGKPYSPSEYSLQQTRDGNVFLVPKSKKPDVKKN
Assay: Activation of NRF2 transcription in human HepG2C8 cells at 10 uM after 6 hrs by luciferase reporter gene assay relative to control
Assay type: cell-based
# maps each entry to its fold change (FC)
ENDPOINT: fold change (FC)

>>> experimental_value("CC(C)(C)c1cc(O)ccc1O")
1.51
>>> experimental_value("COc1cc(O)ccc1/C=C/C(=O)c1ccc(O)cc1 [ECHINATIN]")
5.46
>>> experimental_value("COc1c(CC=C(C)C)c(O)cc2oc(=O)c3c4ccc(O)cc4oc3c12")
0.88
>>> experimental_value("COc1cc2c(c3oc(=O)c(-c4ccc(O)cc4O)cc13)C(C)(C)C(CO)O2 (centres undefined)")
0.88
>>> experimental_value("COc1c2c(cc(O)c1CC=C(C)C)OCC(c1ccc(O)cc1O)=C2")
4.7
>>> experimental_value("COc1cc2c(c3oc(=O)c(-c4ccc(O)cc4O)cc13)C(C)(C)C(C)O2 (centres undefined)")
0.88
>>> experimental_value("COc1cc2c(c3oc(=O)c4c5ccc(O)cc5oc4c13)C(C)(C)C(C)O2 (centres undefined)")
0.88
>>> experimental_value("C[C@@H]1O[C@@H](c2c(O)c([C@@H]3O[C@H](COC(=O)CC(C)(O)CC(=O)O)[C@@H](O)[C@H](O)[C@H]3O)c3oc(-c4ccc(O)cc4)cc(=O)c3c2O)[C@H](O)[C@H](O)[C@H]1O (some centres undefined)")
1.5
>>> experimental_value("COc1c2c(cc3oc(=O)c4c5ccc(O)cc5oc4c13)OC(C)(C)CC2")
3.32
